Test: Tanguay_ZF_120hpf_CFIN_legacy: (Legacy) Oregon State University Tanguay Lab 120 Hour Post-fertilization zebrafish Assay for Caudal Fin Malformation (AID 2283649)
Results filed as inconclusive are left out. Activity calls are given as the source filed them. How the source made its calls: active means hit-call score of the fitted dose curve at least 0.9, where 1 is the maximum; inconclusive means response in the unintended direction; inactive means score below 0.9.
Parameter call: string, one of active, inactive

Cc1ccc2oc(CN(Cc3ccccc3)C(=O)Nc3c(F)cc(F)cc3F)c(-c3ccc(Cl)cc3)c2c1: inactive
CCCCCc1ccc(N)cc1: inactive
CN(C)c1ccc(C(=C2C=CC(=[N+](C)C)C=C2)c2ccc(N(C)C)cc2)cc1: inactive
Cc1cc2c(cc1C(F)(F)F)N(C(=O)Nc1ccc(Oc3cccnc3C)nc1)CC2: inactive
CC(C)(O)c1ccc(CNC(=O)c2cccnc2Oc2ccc3nonc3c2)cc1: inactive
Cc1occc1C(=O)Nc1ccc(C(=O)N2CCC(F)(F)/C(=C\C(=O)N3CCC(N4CCCCC4)CC3)c3ccccc32)cc1: inactive
CCCCCCCC[Si](OCC)(OCC)OCC: inactive
CN1C(=O)CC[C@H]1c1cccnc1: inactive
Cc1cc(F)ccc1-c1cc(N2CC[C@@H](O)[C@H]2CO)ncc1N(C)C(=O)C(C)(C)c1cc(C(F)(F)F)cc(C(F)(F)F)c1: inactive
NCc1cccc(C2CCN(C(=O)c3ccc(C#Cc4ccccc4F)o3)CC2)c1: inactive

Ask: Recorded test outcome, item Cc1ncc(CO)c(CO)c1O
Reply: inactive

Ask: Kindly provide the recorded test outcome for the following molecule: CCCCCCCCCCCCO
Reply: inactive

Ask: Outcome? CCCCOC(=O)c1ccc(O)cc1
Reply: active

Ask: Can you look up the reported call for CCN(Cc1cccc(S(=O)(=O)O)c1)c1ccc(C(=C2C=CC(=[N+](CC)Cc3cccc(S(=O)(=O)O)c3)C=C2)c2ccccc2S(=O)(=O)[O-])cc1 for me?
Reply: inactive

Ask: Please let me know the test result on file for COCC(C)OCC(C)OCC(C)O (stereo not given) .
Reply: inactive

----------
Biological target: rat Adrenergic, Alpha 1, Non-selective Receptor (Adra1), Adra1a (gene 29412)
Experiment: NVS_GPCR_rAdra1_NonSelective: NovaScreen (NVS) G Protein-Coupled Receptor Assay for rat Adrenergic, Alpha 1, Non-selective Receptor (Adra1) (AID 2283289)
Inconclusive results are not listed. Calls of active or inactive are those of the source. How the source made its calls: active means hit-call score of the fitted dose curve at least 0.9, where 1 is the maximum; inconclusive means response in the unintended direction; inactive means score below 0.9.
Could you please pick one outcome from this set? class 1 (active), class 0 (inactive)

COc1ccc2cc(S(=O)(=O)N[C@H](CC(=O)N[C@H](Cc3ccc(CN4[C@H](C)CCC[C@@H]4C)cc3)C(=O)N(C)C(C)C)c3ccc4c(c3)OCO4)ccc2c1: class 1
Cc1occc1C(=O)Nc1ccc(C(=O)N2CCC(F)(F)/C(=C\C(=O)N3CCC(N4CCCCC4)CC3)c3ccccc32)cc1: class 1
O=C1c2ccccc2C(=O)N1CCc1noc(-c2ccc(CN3CCCCCC3)s2)n1: class 1
NCc1cccc(C2CCN(C(=O)c3ccc(C#Cc4ccccc4F)o3)CC2)c1: class 1
CC/C(=C(/CC)c1ccc(O)cc1)c1ccc(O)cc1: class 0
Cc1cc(F)ccc1-c1cc(N2CC[C@@H](O)[C@H]2CO)ncc1N(C)C(=O)C(C)(C)c1cc(C(F)(F)F)cc(C(F)(F)F)c1: class 1
CCOC(=O)O[C@H](C)OC(=O)c1ccc2c(c1)cc(C(=O)NC1CCN(C(C)C)CC1)n2Cc1cc(-c2ccc(Cl)s2)on1: class 1

Next up:
Ask: Outcome logged for CN(C)c1ccc(C(=C2C=CC(=[N+](C)C)C=C2)c2ccc(N(C)C)cc2)cc1 in this assay:
Reply: class 1

----------
Read-out: urokinase plasminogen activator (uPA), PLAU (gene 5328)
Experiment: BSK_KF3CT_uPA: BioMAP Diversity Plus: KF3CT Assay for urokinase plasminogen activator (uPA) Biomarker Activity (AID 2283075)
Conditions: primary human keratinocytes with fibroblasts; actives raise or lower the signal
Calls of active or inactive are those of the source. Rule for the calls: active = hit-call score of the fitted dose curve at least 0.9, where 1 is the maximum; inactive = score below 0.9.
Just give me one of these, please: active, inactive

CCCC(=O)OCCC(C)C: inactive

Ask: Per the records of this test, what outcome belongs to CN(C)c1ccc(C(=C2C=CC(=[N+](C)C)C=C2)c2ccc(N(C)C)cc2)cc1 ?
Reply: active

Ask: # lookup: test call for CN(C)C(=O)C1(N2CCCCC2)CCN(CC[C@@]2(c3ccc(Cl)c(Cl)c3)CN(C(=O)c3ccccc3)CCO2)CC1
Reply: active

Ask: I'd appreciate the recorded outcome for Clc1ccccc1C(c1ccccc1)(c1ccccc1)n1ccnc1 from this test.
Reply: active

Ask: Any idea what this test logged for C[C@]12CC[C@@H]3c4ccc(O)cc4CC[C@H]3[C@@H]1CC[C@H]2O ?
Reply: inactive

Ask: Entry O=C(OCCCCCCOC(=O)c1ccccc1)c1ccccc1 : call = ?
Reply: inactive

Ask: Could you kindly confirm the outcome this assay logged for COCC(C)OCC(C)OCC(C)O (configuration not stated) ?
Reply: inactive

Ask: Answer briefly: the call reported for O=C=NCCCCCCN=C=O in this assay.
Reply: inactive

----------
Target: human Serotonin Transporter (SERT), SLC6A4 (gene 6532) (UniProt P31645)
Sequence (P31645 whole entry, looked up): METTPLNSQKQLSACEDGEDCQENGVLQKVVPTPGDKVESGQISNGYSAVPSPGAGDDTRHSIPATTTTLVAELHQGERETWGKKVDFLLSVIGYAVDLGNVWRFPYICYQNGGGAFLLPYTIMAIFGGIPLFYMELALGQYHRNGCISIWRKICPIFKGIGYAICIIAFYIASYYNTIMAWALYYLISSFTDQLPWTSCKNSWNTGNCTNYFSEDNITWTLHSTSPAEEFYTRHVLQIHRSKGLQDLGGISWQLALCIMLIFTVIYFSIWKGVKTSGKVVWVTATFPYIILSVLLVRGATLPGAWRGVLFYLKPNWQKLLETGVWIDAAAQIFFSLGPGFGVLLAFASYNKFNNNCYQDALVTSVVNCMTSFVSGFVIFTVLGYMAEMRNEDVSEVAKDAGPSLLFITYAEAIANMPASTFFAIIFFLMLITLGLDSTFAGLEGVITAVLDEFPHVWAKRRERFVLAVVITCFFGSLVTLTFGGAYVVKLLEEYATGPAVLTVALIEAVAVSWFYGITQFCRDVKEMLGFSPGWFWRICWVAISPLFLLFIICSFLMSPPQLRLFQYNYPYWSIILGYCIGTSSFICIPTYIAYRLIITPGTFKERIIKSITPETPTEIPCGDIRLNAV
Experiment: NVS_TR_hSERT: NovaScreen (NVS) Transporter Assay for human Serotonin Transporter (SERT) (AID 2283372)
Records with an inconclusive call do not appear. The source made the active and inactive calls. The calls were made as follows: active = hit-call score of the fitted dose curve at least 0.9, where 1 is the maximum; inconclusive = response in the unintended direction; inactive = score below 0.9.
Parameter call: string, one of active, inactive

As a guide, the following entries are already answered.
O=C1c2ccccc2C(=O)N1CCc1noc(-c2ccc(CN3CCCCCC3)s2)n1: inactive
O=C(Nc1ccc(Cl)cc1)Nc1ccc(Cl)c(Cl)c1: inactive
CCOC(=O)O[C@H](C)OC(=O)c1ccc2c(c1)cc(C(=O)NC1CCN(C(C)C)CC1)n2Cc1cc(-c2ccc(Cl)s2)on1: inactive
CN(C[C@@H](CC[N+]12CCC(C3CCCCC3)(CC1)CC2)c1ccc(Cl)c(Cl)c1)C(=O)c1cc(C(F)(F)F)cc(C(F)(F)F)c1: active

In the following, a different molecule is considered.
Ask: Which outcome was entered for the molecule CN(C)C(=O)C1(N2CCCCC2)CCN(CC[C@@]2(c3ccc(Cl)c(Cl)c3)CN(C(=O)c3ccccc3)CCO2)CC1 in this test?
Reply: active

----------
Biological target: sheep Cyclooxygenase-2 (Cox2), PTGS2 (gene 443460)
Test: NVS_ENZ_oCOX2: NovaScreen (NVS) Enzymatic Assay for sheep Cyclooxygenase-2 (Cox2) (AID 2283231)
Records with an inconclusive call do not appear. Active and inactive are the calls of the source. How the source made its calls: active means hit-call score of the fitted dose curve at least 0.9, where 1 is the maximum; inconclusive means response in the unintended direction; inactive means score below 0.9.
Hi! Could you answer with just one of these? class 1 = active, class 0 = inactive

O=CCCCC=O: class 1

Ask: Outcome? COc1cc(C(=O)NC2CCN(C)CC2)ccc1Nc1ncc2c(n1)N(C1CCCC1)CC(F)(F)C(=O)N2C
Reply: class 1

----------
Assay: CEETOX_H295R_OHPROG_noMTC: CeeTox H295R High-throughput Steroidogenesis Assay for OH-Progesterone (OHPROG), maximum tolerated concentration (MTC) filtered results only (AID 2283914)
Conditions: actives raise or lower the signal
The source made the active and inactive calls. Rule for the calls: active = hit-call score of the fitted dose curve at least 0.9, where 1 is the maximum; inactive = score below 0.9.
Select the matching outcome among active, inactive

These recorded examples may help you get a feel for the data.
c1ccc(C[n+]2cccc3ccccc32)cc1: inactive
O=C(O)c1ccccc1C(=O)OCc1ccccc1: inactive
CC(C)(O)c1ccc(CNC(=O)c2cccnc2Oc2ccc3nonc3c2)cc1: inactive
CCCCCCCCOc1ccc(C(=O)c2ccccc2)c(O)c1: active

Would you kindly look at the next entry?
Ask: Which outcome was assigned to CCCCCc1ccc(N)cc1 in this test?
Reply: active

----------
Target: human Peroxisome Proliferator-activated Receptor alpha (PPARa), PPARA (gene 5465)
Assay: NVS_NR_hPPARa: NovaScreen (NVS) Nuclear Receptor Binding Assay for human Peroxisome Proliferator-activated Receptor alpha (PPARa) (AID 2283359);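 further: activity means loss of TR-FRET signal versus DMSO baseline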
Inconclusive results are not listed. The source made the active and inactive calls. The calls were made as follows: active = hit-call score of the fitted dose curve at least 0.9, where 1 is the maximum; inconclusive = response in the unintended direction; inactive = score below 0.9.
Outcomes you can answer with include only these: yes (1) for active, no (0) for inactive

Ask: // outcome(item) with item = CCCCCCCCOC(=O)c1cc(O)c(O)c(O)c1
Reply: yes (1)

Ask: Can you look up the reported call for CCCCCCCCOc1ccc(C(=O)c2ccccc2)c(O)c1 for me?
Reply: no (0)

Ask: Which outcome was assigned to CCCCOC(=O)c1ccc(O)cc1 in this test?
Reply: no (0)

Ask: Field: outcome | Entry: Clc1cc(Cl)c2c(c1)N=C1CCCCCN1C2
Reply: no (0)

Ask: Answer briefly: the call reported for O=C(O)Cc1cc(I)c(Oc2ccc(O)c(I)c2)c(I)c1 in this assay.
Reply: yes (1)

Ask: Just curious, what result did CN(C)c1ccc(C(=C2C=CC(=[N+](C)C)C=C2)c2ccc(N(C)C)cc2)cc1 get here?
Reply: yes (1)

Ask: What is the recorded call for this molecule in the test? Cc1c2ccccc2c(C)c2c1ccc1ccccc12
Reply: no (0)

Ask: For C[C@]12CC[C@@H]3c4ccc(O)cc4CC[C@H]3[C@@H]1CCC2=O , what call appears in the results of this test?
Reply: no (0)

----------
Tested on: DIO2 (gene 1734)
Assay: CCTE_GLTED_hDIO2: CCTE's human Deiodinase 2 (DIO2) Inhibition Assay, Great Lakes Toxicology and Ecology Division (GLTED) Lab (AID 2284050)
Active and inactive are the calls of the source. How the source made its calls: active means hit-call score of the fitted dose curve at least 0.9, where 1 is the maximum; inconclusive means response in the unintended direction; inactive means score below 0.9.
Result category, one only: active, inactive

CN1C(=O)N(c2ccccc2Br)Cc2cnc(Nc3ccc4c(c3)OCC(CO)O4)nc21 (stereo not drawn): inactive
CN(C[C@@H](CC[N+]12CCC(C3CCCCC3)(CC1)CC2)c1ccc(Cl)c(Cl)c1)C(=O)c1cc(C(F)(F)F)cc(C(F)(F)F)c1: active

Ask: // return assay outcome for CC(C)(C)c1csc(-c2cc3cc(OCc4ccccc4CC(=O)O)ccc3o2)n1
Reply: active
